In this section, each of the binders is paired with its reported Fold IC50 increase relative to wild-type.
target: HIV-1 JR-CSF Env T303A (HIV-1 JR-CSF) (UniProt P20871)
testDescription: cell-based or functional assay

Input line: Any idea what its Fold IC50 increase relative to wild-type is? The binder is PGT-128 (antibody, V domains shown) VH: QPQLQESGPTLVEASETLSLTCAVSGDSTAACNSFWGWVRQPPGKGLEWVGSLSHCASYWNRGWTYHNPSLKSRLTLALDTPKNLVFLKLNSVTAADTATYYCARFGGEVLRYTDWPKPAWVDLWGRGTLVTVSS VL: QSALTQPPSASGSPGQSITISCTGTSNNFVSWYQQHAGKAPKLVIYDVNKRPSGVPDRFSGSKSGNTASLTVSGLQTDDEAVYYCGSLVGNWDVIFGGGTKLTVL
Output line: > 500 fold

Input line: PGT-135 (antibody, V domains shown) VH: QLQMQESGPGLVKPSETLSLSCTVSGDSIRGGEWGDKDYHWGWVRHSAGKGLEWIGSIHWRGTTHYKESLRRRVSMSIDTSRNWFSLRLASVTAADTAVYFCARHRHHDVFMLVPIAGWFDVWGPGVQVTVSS VL: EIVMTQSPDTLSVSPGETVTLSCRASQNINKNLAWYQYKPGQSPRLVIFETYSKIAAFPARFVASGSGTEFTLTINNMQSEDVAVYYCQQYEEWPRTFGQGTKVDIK ?
Output line: 0.3 fold

Input line: Also PGT-130 (antibody, V domains shown) VH: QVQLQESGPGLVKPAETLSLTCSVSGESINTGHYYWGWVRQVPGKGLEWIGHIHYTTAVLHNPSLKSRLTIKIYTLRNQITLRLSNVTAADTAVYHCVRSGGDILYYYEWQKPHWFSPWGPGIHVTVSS VL: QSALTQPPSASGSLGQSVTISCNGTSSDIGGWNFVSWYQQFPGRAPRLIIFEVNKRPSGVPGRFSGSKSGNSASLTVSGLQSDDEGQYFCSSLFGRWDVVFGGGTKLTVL , if possible.
Output line: > 250 fold

Input line: Then PGT-127 (antibody, V domains shown) VH: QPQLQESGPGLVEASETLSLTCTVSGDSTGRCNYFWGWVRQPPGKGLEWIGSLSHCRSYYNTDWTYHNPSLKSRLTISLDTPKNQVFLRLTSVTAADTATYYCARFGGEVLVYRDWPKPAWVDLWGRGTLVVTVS VL: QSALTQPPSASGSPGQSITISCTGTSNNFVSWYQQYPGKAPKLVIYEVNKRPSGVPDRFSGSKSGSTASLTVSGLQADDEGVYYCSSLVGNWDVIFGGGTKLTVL ?
Output line: > 500 fold

Input line: Next up: PGT-131 (antibody, V domains shown) VH: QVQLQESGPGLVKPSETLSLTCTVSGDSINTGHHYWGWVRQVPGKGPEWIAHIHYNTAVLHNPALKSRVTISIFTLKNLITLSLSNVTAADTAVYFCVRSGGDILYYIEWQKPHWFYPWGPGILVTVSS VL: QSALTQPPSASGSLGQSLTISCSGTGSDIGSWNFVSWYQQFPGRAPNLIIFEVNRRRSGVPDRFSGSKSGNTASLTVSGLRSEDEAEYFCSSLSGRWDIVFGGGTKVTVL
Output line: > 170 fold

Source of measurements: patent US20200024330A1
